- study-target: T1, corticotropin releasing factor 2 receptor
- T1 sequence (Q13324 whole entry, species assumed, looked up): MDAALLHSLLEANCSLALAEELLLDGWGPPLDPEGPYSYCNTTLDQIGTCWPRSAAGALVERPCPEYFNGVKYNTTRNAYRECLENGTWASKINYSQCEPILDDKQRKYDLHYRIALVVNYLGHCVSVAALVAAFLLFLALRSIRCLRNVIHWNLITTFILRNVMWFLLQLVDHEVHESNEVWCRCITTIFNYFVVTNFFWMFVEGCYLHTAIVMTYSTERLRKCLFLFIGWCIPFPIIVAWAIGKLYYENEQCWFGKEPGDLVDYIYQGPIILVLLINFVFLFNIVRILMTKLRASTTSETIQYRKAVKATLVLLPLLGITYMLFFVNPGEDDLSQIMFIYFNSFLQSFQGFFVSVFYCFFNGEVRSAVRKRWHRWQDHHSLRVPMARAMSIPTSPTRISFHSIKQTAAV
- assay-text: cell-based or functional assay
Ends that are not written are not given here.
Rule: CRF2R EC50 under 70 nM gives F, otherwise T.

[[record]]
binder = "ZGPPISIDLPLQLLRKMIEIEKQEKEKQQATTNARILARV (C-terminal amide) [SEQ ID NO 144]"
label_class = "F"

[[record]]
binder = "ZGPPISIDLPYILLRKMIEIEKQEKEKQQAANNRLLLDTI (C-terminal amide) [SEQ ID NO 204]"
label_class = "F"

[[record]]
binder = "SQEPPISLDLPLYLLREVLEMTKADQLAQQAHSNRKLLDIA-NH2 [SEQ ID NO 101]"
label_class = "T"

[[record]]
binder = "IVLSLDVPIGLLQILLEQTKANAAREQATTVARILARV-NH2 [SEQ ID NO 116]"
label_class = "T"

[[record]]
binder = "SQEPPISLDLPTYLLREVLEMTKADQLAQQAHSNRKLLDIA-NH2 [SEQ ID NO 106]"
label_class = "T"

[[record]]
binder = "ZGPPISIDLPIDLLRKMIEIEKQEKEKQQAANNRLLLDTI (C-terminal amide) [SEQ ID NO 28]"
label_class = "T"

[[record]]
binder = "ZGPPISIDLPLELLRKMIEIEKQEKEKQQAANNRLLLDTI (C-terminal amide) [SEQ ID NO 82]"
label_class = "F"

[[record]]
binder = "IVLSLDVPIGLLQILLEQARADAAREQATTNARILARV-NH2 [SEQ ID NO 130]"
label_class = "F"

[[record]]
binder = "IVLSLDVPIGLLQELLEMARAEQLAQQAHSNRKLMEII-NH2 [SEQ ID NO 1]"
label_class = "F"

[[record]]
binder = "SQEIVLSLDVPIGLLREVLEMTKADQLAQQAHSNRKLLDIA-NH2 [SEQ ID NO 7]"
label_class = "T"

[[record]]
binder = "IVLSLDVPIGLLQILLEQAKQRAAREQATTNARILARV-NH2 [SEQ ID NO 110]"
label_class = "F"

[[record]]
binder = "IVLSLDVPIGLLQILLEQEKQEKEKQQATTNARILARV-NH2 [SEQ ID NO 167]"
label_class = "F"

[[record]]
binder = "ZGPPISIDLSLELLRKMIEIEKQEKEKQQATTNARILARV (C-terminal amide) [SEQ ID NO 142]"
label_class = "F"

[[record]]
binder = "ZGPPISIDVPFQLLRILIEIEKQEKEKQQATTNARILARV (C-terminal amide) [SEQ ID NO 171]"
label_class = "F"

[[record]]
binder = "ZGPPISIDLPAQLLRKMIEIEKQEKEKQQAANNRLLLDTI (C-terminal amide) [SEQ ID NO 211]"
label_class = "F"

[[record]]
binder = "SQEPPISLDLPFYLLREVLEMTKADQLAQQAHSNRKLLDIA-NH2 [SEQ ID NO 96]"
label_class = "T"

[[record]]
binder = "ZGPPISIDLPFQLLRKMIEIEKQEKEKQQATTNARLLATV (C-terminal amide) [SEQ ID NO 21]"
label_class = "F"

